This section presents sequences with their documented interaction data at Target Concentration 100 values.
Target: CUL4B (Homo sapiens, UniProt Q13620, L520D/V516R)
Construct: GST-TEV (N, cleaved yes); made in house; host or cells: E. coli BL21 CodonPlus
Sequence (Q13620 206-557 V516R/L520D): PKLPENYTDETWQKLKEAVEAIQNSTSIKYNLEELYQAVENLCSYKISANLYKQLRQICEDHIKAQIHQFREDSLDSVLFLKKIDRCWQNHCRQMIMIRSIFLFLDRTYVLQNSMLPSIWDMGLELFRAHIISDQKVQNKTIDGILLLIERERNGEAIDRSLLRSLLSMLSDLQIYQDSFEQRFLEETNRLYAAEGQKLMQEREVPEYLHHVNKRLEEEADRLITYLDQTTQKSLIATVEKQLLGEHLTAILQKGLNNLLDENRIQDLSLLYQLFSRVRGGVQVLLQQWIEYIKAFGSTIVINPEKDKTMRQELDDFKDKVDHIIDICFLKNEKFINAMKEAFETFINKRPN
Assay: Naive Library Presenter Screening (phage, NGS), CUL4B
Type: binding
Details: CUL4B target concentration 100 nM
assay-metric: interaction data at Target Concentration 100

seq-text | measurement
DPATRMCELAAWTCEVW | 1
DPASRLCELAAWVCDSF | 139
DPAQRACQFAAWICERF | 13
DPATRHCIFAAWACDRF | 47
DPADRWCELAAWICDEF | 0
DPADRYCDMAAWVCERF | 15
DPAMNHCVLAAWVCDTF | 6

* * *

Target: RNF31 UBA domain (Homo sapiens, UniProt Q96EP0)
Construct: RNF31 UBA domain protein (residues 480-639) with N-terminal Thioredoxin-TEV-6×his-yBBr-3C tags; Thioredoxin (N, cleaved yes); made in house; host or cells: E. coli BL21 (DE3) pLysS
Sequence (Q96EP0 480-639): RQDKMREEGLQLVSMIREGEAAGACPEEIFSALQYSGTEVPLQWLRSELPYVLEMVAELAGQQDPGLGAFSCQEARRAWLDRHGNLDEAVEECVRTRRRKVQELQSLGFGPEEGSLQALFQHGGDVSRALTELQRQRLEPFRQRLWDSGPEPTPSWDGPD
Experiment: Phage Library Screening with NGS, RNF31 UBA domain
Type: binding
Settings: Target Concentration 300; no competitor
Reported phage screen NGS read-out at Target Concentration 300 values for a set of sequences
assay-metric: phage screen NGS read-out at Target Concentration 300

seq-text | assay-target | measurement
DPALTHCTAAAYWCYVM | RNF31 UBA domain (Homo sapiens, UniProt Q96EP0) | 2
DPAFSQCVYAAWHCESL | RNF31 UBA domain (Homo sapiens, UniProt Q96EP0) | 7
DPAFYECVYAAVTCTQF | RNF31 UBA domain (Homo sapiens, UniProt Q96EP0) | 2
DPAAFVCEMAANDCLYT | RNF31 UBA domain (Homo sapiens, UniProt Q96EP0) | 2

* * *

Molecular target: beta-catenin (Homo sapiens)
Construct: made in house; host or cells: E. coli BL21 (DE3) pLysS
Sequence (P35222 134-665): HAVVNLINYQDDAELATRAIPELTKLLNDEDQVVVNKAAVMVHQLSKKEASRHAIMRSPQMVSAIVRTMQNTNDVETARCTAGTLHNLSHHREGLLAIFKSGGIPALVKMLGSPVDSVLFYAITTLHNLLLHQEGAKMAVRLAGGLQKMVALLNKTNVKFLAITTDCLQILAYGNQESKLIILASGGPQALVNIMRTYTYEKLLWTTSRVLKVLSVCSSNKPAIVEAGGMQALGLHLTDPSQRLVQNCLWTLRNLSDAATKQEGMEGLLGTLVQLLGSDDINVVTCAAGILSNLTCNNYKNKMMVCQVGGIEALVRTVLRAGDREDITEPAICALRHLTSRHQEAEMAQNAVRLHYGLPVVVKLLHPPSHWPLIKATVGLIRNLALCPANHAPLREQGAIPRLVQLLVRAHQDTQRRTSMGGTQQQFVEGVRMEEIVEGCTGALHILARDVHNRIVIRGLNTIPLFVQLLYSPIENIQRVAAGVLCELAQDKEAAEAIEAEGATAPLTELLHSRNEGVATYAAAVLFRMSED
Test: Phage Library Screening with NGS, beta-catenin
Type: binding
Conditions: BLANK, second column
Below is a list of entries, each paired with its recorded Target Concentration BLANK (phage screen NGS readout) value.
assay-metric: Target Concentration BLANK (phage screen NGS readout)

seq-text | measurement
DPAQSDCDWAAEHCNLI | 0
DPAILDCHIAAIQCFHD | 0
DPAEAECILAAHICNIS | 0

* * *

Biological target: RNF31 PUB domain (Homo sapiens, UniProt Q96EP0)
Construct: MBP-TEV (N, cleaved yes); made in house; host or cells: E. coli BL21 (DE3) pLysS
Sequence (Q96EP0 1-179): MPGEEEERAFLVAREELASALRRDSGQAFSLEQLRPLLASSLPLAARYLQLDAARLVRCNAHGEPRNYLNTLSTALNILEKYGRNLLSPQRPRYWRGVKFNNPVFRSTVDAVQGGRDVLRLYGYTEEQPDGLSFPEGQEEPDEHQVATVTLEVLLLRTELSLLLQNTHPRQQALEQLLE
Assay: Phage Library Screening with NGS, RNF31 PUB domain
Format: binding
Conditions: clusters C41-C45; BLANK screen, column 4 of 5

seq-text | Phage library screen NGS readout, BLANK
DPAYDYCLYAAQDCVWW | 0
DPAIWECVSAAAVCMTY | 1
DPARRECWDAAILCTYY | 0
DPASHMCLEAAVMCTYD | 0
DPAYYTCDWAAIYCDYH | 0

* * *

target: FBXW7-SKP1 (Homo sapiens, UniProt Q969H0); construct: FBXW7 (Uniprot ID: Q969H0, residues 263-706) with an N-terminal GST-TEV tag and C-terminal AVI tag; GST-TEV (N); made in house; host or cells: E. coli BL21 (DE3); experiment: Naive Library Presenter Screening (phage, NGS), FBXW7-SKP1; assay type: binding; conditions: FBXW7 target concentration 10 nM
Sequence (Q969H0 263-706): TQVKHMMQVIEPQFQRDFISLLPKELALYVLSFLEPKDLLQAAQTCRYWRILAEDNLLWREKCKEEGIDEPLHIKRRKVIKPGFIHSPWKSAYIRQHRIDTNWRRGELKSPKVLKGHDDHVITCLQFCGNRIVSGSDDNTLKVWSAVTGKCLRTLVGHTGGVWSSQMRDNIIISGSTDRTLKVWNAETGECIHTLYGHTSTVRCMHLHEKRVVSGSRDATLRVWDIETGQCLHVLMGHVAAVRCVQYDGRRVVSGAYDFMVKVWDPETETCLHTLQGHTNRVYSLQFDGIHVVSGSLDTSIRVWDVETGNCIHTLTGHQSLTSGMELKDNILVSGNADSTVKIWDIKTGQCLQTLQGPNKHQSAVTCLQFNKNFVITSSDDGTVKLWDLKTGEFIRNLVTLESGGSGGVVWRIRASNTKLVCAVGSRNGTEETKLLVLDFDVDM
Sequence (P63208 whole entry partner, the tested form may be a part): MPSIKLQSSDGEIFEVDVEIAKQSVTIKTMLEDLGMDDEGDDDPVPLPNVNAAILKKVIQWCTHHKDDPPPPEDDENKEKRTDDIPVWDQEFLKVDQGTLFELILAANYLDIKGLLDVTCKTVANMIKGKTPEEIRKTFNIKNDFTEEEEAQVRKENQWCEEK
assay-metric: interaction data at Target Concentration 10

seq-text | measurement
DPAFWYCDEAAEMCEFW | 0
DPAIRMCRDAAELCEFW | 0
DPAAWICEEAAEICEFW | 0
DPANIACDDAALLCELW | 0
DPATYFCYDAAELCDWW | 0
DPAMTWCLNAAELCEFW | 0

* * *

This section presents sequences with their documented Phage library screen NGS readout, BLANK values.
Molecular target: RNF31 PUB domain (Homo sapiens, UniProt Q96EP0)
Construct: MBP-TEV (N, cleaved yes); made in house; host or cells: E. coli BL21 (DE3) pLysS
Sequence (Q96EP0 1-179): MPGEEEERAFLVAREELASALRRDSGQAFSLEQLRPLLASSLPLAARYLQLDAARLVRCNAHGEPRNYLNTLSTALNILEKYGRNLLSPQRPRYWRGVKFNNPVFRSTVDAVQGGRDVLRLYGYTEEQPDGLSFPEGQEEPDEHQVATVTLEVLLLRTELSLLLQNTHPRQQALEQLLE
Test: Phage Library Screening with NGS, RNF31 PUB domain
Type: binding
Settings: clusters C41-C45; BLANK screen, column 1 of 5
Bridge positions count the residues as written; N and C are the ends. Ends that are not written are not given here.

seq-text | Phage library screen NGS readout, BLANK
DPARRECWDAAILCTYY | 0
DPAIYQCSLAADICSTY | 2
DPAYDYCLYAAYDCTQT | 1
DPAYDLCLNAAVACTYV | 1
DPAYWDCMYAAFYCDDI | 0
DPAQDQCISAAVLCTYT | 0
DPALEDCQWAALYCDEY | 1
DPAEEYCLEAAILCTYD | 0
DPAYSSCSWAAIYCNWT | 1
DPAVVDCWDAAVQCTYY | 0
DPAWEHCLYAAYDCTHE | 0
DPAWESCMYAAYDCDNE | 0
DPALEICWDAAIQCSYV | 2
DPAHANCQLAADVCSTY | 1
DPAYWDCLYAAADCAFY | 2
DPAQEECFEAAVFCSYY | 0
DPASEWCLDAAVLCTYS | 2
DPAYEDCADAAMYCDMD | 1
DPAEDECQDAAILCSYN | 1
DPAYDWCMYAAYNCVED | 0
DPATWWCLYAAEDCVNI | 0
DPANFTCRVAADVCSTY | 0
DPALSHCTVAAMVCSTY | 0
DPAIRECMLAALVCSTY | 0
DPAMQECMDAAIMCTYA | 0
DPAWNDCLYAAETCISW | 2
DPATEACFDAAIECTYY | 0
DPAFHDCQFAAAVCSTY | 0
DPAAEDCHIAAMVCMTY | 0
DPAYDWCLYAAEYCHTD | 0
DPAQHECIYAAWDCDML | 3
DPAMIDCFLAAQVCATY (not fully specified; cysteine pairing not given here) | 0
DPASHMCLEAAVMCTYD | 0
DPALRDCLDAAIMCTYT | 0
DPAHTWCMYAAFDCFES | 1
DPAFQFCVEAAVACSYY | 0
DPAQDWCMYAAYECDAH | 0
DPAWWNCLYAANTCVED | 1
DPAFMDCVFAAAVCATY | 0
DPARDWCLYAAYDCYTA (Ac-DPARDWCLYAAYDCYTA-NH2; not fully specified (bridges); cysteine pairing not given here) | 1
DPAYDWCMYAAHECVDQ | 0
DPAYYTCDWAAIYCDYH | 0
DPAYWHCLYAAASCDDI | 0
DPAFWACLYAAEECVVD | 1
DPAWWDCMYAASHCDTV | 2
DPAFAQCEVAAMVCTTY | 0
DPAEDECDWAALYCDMQ | 0
DPAWLDCIYAAYDCVTD | 1
DPAFWECMYAASDCDAS | 1
DPAIQECYLAAQVCTTY | 0
DPAWWNCLYAAYECNHA | 0
DPAIVQCAWAALYCDMQ (Ac-DPAIVQCAWAALYCDMQ-NH2; bridge 7-14; also: Cys-Cys staple, linker not named) | 0
DPAQMECIDAAIMCSYT | 0
DPAEWDCLYAAFDCFAN | 0
DPAYDWCLYAAYQCDQN | 0
DPAYWQCIYAAWDCDQM | 1
DPAWTDCDWAALYCDES | 0
DPAFDWCLYAADDCAET | 0
DPAWTDCDWAALYCEFQ | 0
DPAEDWCMYAAWDCQME | 0
DPAYSLCISAAVECTYY | 0
